MIC, Trichophyton mentagrophytes: measured values
# value in µg/mL; strip the unit string

CCCCc1ccc(C(=O)O)nc1 [Fusaric acid, fusaric Acid] : 500

Given CCCCCCCCCC(=O)OCC(O)CO (racemic) [1-monocaprin, 1-decanoyl-rac-glycerol] , state its recorded MIC. 250

Cc1cc(C2CCCCC2)n(O)c(=O)c1 [ciclopirox] , same question. 31.3

---

MIC, Trichophyton rubrum: measured values
# value in µg/mL; strip the unit string

CCCCc1ccc(C(=O)O)nc1 [Fusaric acid, fusaric Acid] : 500
CCCCCCCCCC(=O)OCC(O)CO (racemic) [1-monocaprin, 1-decanoyl-rac-glycerol] : 250

Now take the following compound into account.
Given Cc1cc(C2CCCCC2)n(O)c(=O)c1 [ciclopirox] , state its recorded MIC. 31.3
